# CONDITION INFO: in ethanol, 293.15 K
MEASUREMENT KIND: solubility (mole fraction)
When you answer, write just the number.

Reported solubility (mole fraction) for `Cc1ccc(S(=O)[O-])cc1.[Na+]` was 0.00345

###

# CONDITION INFO: in n-butanol, 283.15 K
MEASUREMENT KIND: solubility (mole fraction)

Reported solubility (mole fraction) for `Cc1ccc(S(=O)[O-])cc1.[Na+]` was 0.00035

###

# CONDITION INFO: in n-propanol, 318.15 K
MEASUREMENT KIND: solubility (mole fraction)
When you answer, write just the number.

Reported solubility (mole fraction) for `Cc1ccc(S(=O)[O-])cc1.[Na+]` was 0.00421

###

# CONDITION INFO: in n-butanol, 303.15 K
MEASUREMENT KIND: solubility (mole fraction)
When you answer, write just the number.

Reported solubility (mole fraction) for `Cc1ccc(S(=O)[O-])cc1.[Na+]` was 0.00052

###

# CONDITION INFO: in DMF, 318.15 K
MEASUREMENT KIND: solubility (mole fraction)
When you answer, write just the number.

Reported solubility (mole fraction) for `Cc1ccc(S(=O)[O-])cc1.[Na+]` was 0.02

###

# CONDITION INFO: in methanol, 318.15 K
MEASUREMENT KIND: solubility (mole fraction)
When you answer, write just the number.

Reported solubility (mole fraction) for `Cc1ccc(S(=O)[O-])cc1.[Na+]` was 0.156

###

# CONDITION INFO: in ethanol, 283.15 K
MEASUREMENT KIND: solubility (mole fraction)
When you answer, write just the number.

Reported solubility (mole fraction) for `Cc1ccc(S(=O)[O-])cc1.[Na+]` was 0.00328

###

# CONDITION INFO: in isopropanol, 298.15 K
MEASUREMENT KIND: solubility (mole fraction)
When you answer, write just the number.

Reported solubility (mole fraction) for `Cc1ccc(S(=O)[O-])cc1.[Na+]` was 0.00097

###

# CONDITION INFO: in methanol, 313.15 K
MEASUREMENT KIND: solubility (mole fraction)
When you answer, write just the number.

Reported solubility (mole fraction) for `Cc1ccc(S(=O)[O-])cc1.[Na+]` was 0.13

###

# CONDITION INFO: in DMF, 298.15 K
MEASUREMENT KIND: solubility (mole fraction)
When you answer, write just the number.

Reported solubility (mole fraction) for `Cc1ccc(S(=O)[O-])cc1.[Na+]` was 0.00525

###

# CONDITION INFO: in methanol, 293.15 K
MEASUREMENT KIND: solubility (mole fraction)
When you answer, write just the number.

Reported solubility (mole fraction) for `Cc1ccc(S(=O)[O-])cc1.[Na+]` was 0.0511

###

# CONDITION INFO: in n-propanol, 308.15 K
MEASUREMENT KIND: solubility (mole fraction)
When you answer, write just the number.

Reported solubility (mole fraction) for `Cc1ccc(S(=O)[O-])cc1.[Na+]` was 0.00381

###

# CONDITION INFO: in isopropanol, 288.15 K
MEASUREMENT KIND: solubility (mole fraction)
When you answer, write just the number.

Reported solubility (mole fraction) for `Cc1ccc(S(=O)[O-])cc1.[Na+]` was 0.00089

###

# CONDITION INFO: in DMF, 278.15 K
MEASUREMENT KIND: solubility (mole fraction)

Reported solubility (mole fraction) for `Cc1ccc(S(=O)[O-])cc1.[Na+]` was 0.00114
